Field: IC50. Provide a value for each of the compounds that follow.
Biological target: PrP^Sc in RML-infected N2a cells (Mus musculus, UniProt P04925)
Sequence (P04925 23-230 limits assumed): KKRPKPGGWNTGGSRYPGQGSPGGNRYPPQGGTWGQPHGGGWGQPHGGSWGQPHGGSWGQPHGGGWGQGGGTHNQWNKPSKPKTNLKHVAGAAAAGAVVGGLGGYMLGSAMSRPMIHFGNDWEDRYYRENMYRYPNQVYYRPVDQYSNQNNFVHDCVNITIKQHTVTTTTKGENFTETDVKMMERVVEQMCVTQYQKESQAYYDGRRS
Test: cell-based
Conditions: IC50 for purging of PRP^Sc in RML-infected N2a cells
Answers are plain numbers, in µM.

Consider the following illustrative entries.
{"columns": ["COMPOUND", "IC50 / µM"],
 "data": [
  ["C=CC1CN2CCC1CC2[C@H](O)c1ccnc2ccc(OC)cc12 (some centres unmarked)", 6],
  ["C=CC1CN2CCC1CC2[C@H](O)c1ccnc2ccccc12 (some centres unmarked)", 18],
  ["C=CC1CN2CCC1CC2[C@@H](O)c1ccnc2ccccc12 (some centres unmarked)", 6]
]}

Need IC50 for each of these compounds.
1. OC(c1cc(C(F)(F)F)nc2c(C(F)(F)F)cccc12)C1CCCCN1 (racemic) [mefloquine, reference compound]
2. CCC1CN2CCC1CC2[C@H](O)c1ccnc2ccc(OC)cc12 (some centres unmarked)
3. C=CC1CN2CCC1CC2[C@@H](O)c1ccnc2ccc(OC)cc12 (some centres unmarked)

[0.5, 12.5, 3]
